system: Streptococcus pneumoniae; experiment: Antibacterial activity against Streptococcus pneumoniae PU09 by microbroth dilution method; format: functional
Measured MIC values are reported for all entries that follow.

molecule	unit descriptor	MIC
CC[C@H]1OC(=O)[C@H](C)C(=O)[C@H](C)[C@@H](O[C@@H]2O[C@H](C)C[C@H](N(C)C)[C@H]2O)[C@](C)(OC)C[C@@H](C)C(=O)[C@H](C)[C@H]2N(CCCCCC#Cc3ccc4c(c3)c(=O)c(C(N)=O)cn4C3CC3)C(=O)O[C@]12C	µg/mL	1
CC[C@H]1OC(=O)[C@H](C)C(=O)[C@H](C)[C@@H](O[C@@H]2O[C@H](C)C[C@H](N(C)C)[C@H]2O)[C@](C)(OC)C[C@@H](C)C(=O)[C@H](C)[C@H]2N(CCCCCC#Cc3ccc4c(c3)c(=O)c(C(=O)O)cn4C3CC3)C(=O)O[C@]12C	µg/mL	1
CC[C@H]1OC(=O)[C@H](C)[C@@H](O[C@H]2C[C@@](C)(OC)[C@@H](O)[C@H](C)O2)[C@H](C)[C@@H](O[C@@H]2O[C@H](C)C[C@H](N(C)C)[C@H]2O)[C@](C)(OC)C[C@@H](C)C(=O)[C@H](C)[C@@H](O)[C@]1(C)O	µg/mL	8
CC[C@H]1OC(=O)[C@H](C)C(=O)[C@H](C)[C@@H](O[C@@H]2O[C@H](C)C[C@H](N(C)C)[C@H]2O)[C@](C)(OC)C[C@@H](C)C(=O)[C@H](C)[C@H]2N(CCN3CCN(c4c(F)cc5c(=O)c(C(=O)O)cn(C6CC6)c5c4OC)CC3)C(=O)O[C@]12C	µg/mL	2
